# Test system: M. catarrhalis ICB489
# assayComment: MIC determination, broth microdilution (CLSI)
# Assay type: cell-based
# statedConditions: Moraxella catarrhalis, ICB489, strain 12
quantityKind: MIC

Fill in: MIC of CC1(C)[C@H](NC(=O)/C(=N\OCCOc2ccc(C(=N)N)nc2)c2csc(N)n2)C(=O)N1OS(=O)(=O)O is ___ ≤ 0.063 µg/mL

Quick one: MIC of CC1(C)[C@H](NC(=O)/C(=N\OCCOc2ccc(C3=NCCN3)cc2)c2csc(N)n2)C(=O)N1OS(=O)(=O)O ? ≤ 0.063 µg/mL

Item CC1(C)[C@H](NC(=O)/C(=N\OCCOc2ccnc(C(=N)N)c2)c2csc(N)n2)C(=O)N1OS(=O)(=O)O has what recorded MIC? ≤ 0.063 µg/mL
